EXPERIMENT_SUMMARY: Clearance in human
Format: ADME

MOLECULE: Cc1c(C(=O)Nc2ccc3c(c2)B(O)OC3)nnn1-c1ccccn1
clearance, mL/min/kg: 1

----------
# selectivity ratio values compiled below
EXPERIMENT_SUMMARY: Selectivity index, ratio of CC50 for human MRC5 cells to EC50 for Leishmania infantum MHOM/MA(BE)/67/ITMAP263
Assay type: toxicity
REPORTED_CONDITIONS: read-out: Ratio CC50/EC50
ENDPOINT_LABEL: selectivity ratio

COMPOUND: O=C(Nc1ccc2c(c1)B(O)OC2)c1cn(CCC(F)(F)F)nc1C(F)(F)F
SIGN_QUALIFIER: =
MEASURED_RESULT: 38

COMPOUND: Cc1c(C(=O)Nc2ccc3c(c2)B(O)OC3)nnn1-c1cccnc1
SIGN_QUALIFIER: >
MEASURED_RESULT: 1.8

COMPOUND: COc1cccc(-n2nnc(C(=O)Nc3ccc4c(c3)B(O)OC4)c2C)n1
SIGN_QUALIFIER: >
MEASURED_RESULT: 80

COMPOUND: Cc1c(C(=O)Nc2ccc3c(c2)B(O)OC3)cnn1CCC(F)(F)F
SIGN_QUALIFIER: >
MEASURED_RESULT: 5

COMPOUND: O=C(Nc1ccc2c(c1)B(O)OC2)c1cn(C2CCOCC2)nc1C(F)(F)F
SIGN_QUALIFIER: >
MEASURED_RESULT: 21

COMPOUND: O=C(Nc1ccc2c(c1)B(O)OC2)c1cc(-c2ccccn2)n[nH]1
SIGN_QUALIFIER: =
MEASURED_RESULT: 8

COMPOUND: O=C(Nc1ccc2c(c1)B(O)OC2)c1ccc(F)cc1C(F)(F)F
SIGN_QUALIFIER: >
MEASURED_RESULT: 24

COMPOUND: O=C(Nc1ccc2c(c1)B(O)OC2)c1cn(-c2ccc(Cl)cc2)nc1C(F)(F)F
SIGN_QUALIFIER: =
MEASURED_RESULT: 2

COMPOUND: Cc1oc(C(=O)Nc2ccc3c(c2)B(O)OC3)cc1-c1ccccn1
SIGN_QUALIFIER: =
MEASURED_RESULT: 18

COMPOUND: O=C(Nc1ccc2c(c1)B(O)OC2)c1cn(-c2ccccn2)nn1
SIGN_QUALIFIER: =
MEASURED_RESULT: 30

COMPOUND: COc1cccc(-n2ncc(C(=O)Nc3ccc4c(c3)B(O)OC4)c2C)n1
SIGN_QUALIFIER: =
MEASURED_RESULT: 31

COMPOUND: Cc1c(C(=O)Nc2ccc3c(c2)B(O)OC3)nnn1-c1ccccc1
SIGN_QUALIFIER: >
MEASURED_RESULT: 1.7

COMPOUND: Cn1nc(C(=O)Nc2ccc3c(c2)B(O)OC3)cc1-c1ccccn1
SIGN_QUALIFIER: =
MEASURED_RESULT: 31

COMPOUND: Cn1nc(-c2ccccn2)cc1C(=O)Nc1ccc2c(c1)B(O)OC2
SIGN_QUALIFIER: >
MEASURED_RESULT: 2

COMPOUND: O=C(Nc1ccc2c(c1)B(O)OC2)c1cn(-c2ccccn2)nc1C(F)(F)F
SIGN_QUALIFIER: =
MEASURED_RESULT: 1.6

COMPOUND: Cc1nn(C2CCC2)cc1C(=O)Nc1ccc2c(c1)B(O)OC2
SIGN_QUALIFIER: >
MEASURED_RESULT: 4

COMPOUND: O=C(Nc1ccc2c(c1)B(O)OC2)c1cn(CC(F)(F)F)nc1C(F)(F)F
SIGN_QUALIFIER: >
MEASURED_RESULT: 40

COMPOUND: Cc1c(C(=O)Nc2ccc3c(c2)B(O)OC3)nnn1-c1ccccn1
SIGN_QUALIFIER: >
MEASURED_RESULT: 39

COMPOUND: Cc1nn(CCC(F)(F)F)cc1C(=O)Nc1ccc2c(c1)B(O)OC2
SIGN_QUALIFIER: >
MEASURED_RESULT: 11

COMPOUND: CCCCCCCCCCCCCCCCOP(=O)([O-])OCC[N+](C)(C)C [MILTEFOSINE]
SIGN_QUALIFIER: >
MEASURED_RESULT: 6.2

COMPOUND: O=C(Nc1ccc2c(c1)B(O)OC2)c1nnc(-c2ccccn2)o1
SIGN_QUALIFIER: >
MEASURED_RESULT: 32

COMPOUND: Cc1c(-c2ccccn2)csc1C(=O)Nc1ccc2c(c1)B(O)OC2
SIGN_QUALIFIER: =
MEASURED_RESULT: 4
